# Test system: Trypanosoma cruzi
# ASSAY_SUMMARY: Trypanosoma cruzi phosphomannomutase and mannose-1-phosphate guanylyltransferase assay
# Assay type: functional
# Parameters: scale not given: direction of the effect not stated beside the values
# STUDY_CONDITIONS: 10 µM

MOLECULE | RESULT_UNITS | Percent Effect
CCc1nc(CN(C)CC2CCN(CCO)CC2)no1 | % | 6.56
CC(=O)c1cc(CC(=O)NCc2c(F)cccc2F)cs1 | % | 4.44
Cn1cccc1CNC(=O)N(CCO)C1CCCc2ccccc21 (stereo unspecified) | % | 3.8
COc1ccc(CNC2CCN(CCc3ccncc3)CC2)cc1O | % | 5.27
COCCNC(=O)[C@@H]1CC[C@@H]2[C@@H](CCN2Cc2cnn(C)c2)O1 | % | -0.386
CN(CC1COc2ccccc2O1)C(=O)NCCCn1ccnc1 (stereo unspecified) | % | -4.7

====

# key: entry, value: Percent Effect
# ASSAYED_TARGET: Ubiquitin-activating enzyme e1, putative (Leishmania donovani (strain BPK282A1)) (UniProt E9BSI1)
# Sequence (E9BSI1 as listed by the source): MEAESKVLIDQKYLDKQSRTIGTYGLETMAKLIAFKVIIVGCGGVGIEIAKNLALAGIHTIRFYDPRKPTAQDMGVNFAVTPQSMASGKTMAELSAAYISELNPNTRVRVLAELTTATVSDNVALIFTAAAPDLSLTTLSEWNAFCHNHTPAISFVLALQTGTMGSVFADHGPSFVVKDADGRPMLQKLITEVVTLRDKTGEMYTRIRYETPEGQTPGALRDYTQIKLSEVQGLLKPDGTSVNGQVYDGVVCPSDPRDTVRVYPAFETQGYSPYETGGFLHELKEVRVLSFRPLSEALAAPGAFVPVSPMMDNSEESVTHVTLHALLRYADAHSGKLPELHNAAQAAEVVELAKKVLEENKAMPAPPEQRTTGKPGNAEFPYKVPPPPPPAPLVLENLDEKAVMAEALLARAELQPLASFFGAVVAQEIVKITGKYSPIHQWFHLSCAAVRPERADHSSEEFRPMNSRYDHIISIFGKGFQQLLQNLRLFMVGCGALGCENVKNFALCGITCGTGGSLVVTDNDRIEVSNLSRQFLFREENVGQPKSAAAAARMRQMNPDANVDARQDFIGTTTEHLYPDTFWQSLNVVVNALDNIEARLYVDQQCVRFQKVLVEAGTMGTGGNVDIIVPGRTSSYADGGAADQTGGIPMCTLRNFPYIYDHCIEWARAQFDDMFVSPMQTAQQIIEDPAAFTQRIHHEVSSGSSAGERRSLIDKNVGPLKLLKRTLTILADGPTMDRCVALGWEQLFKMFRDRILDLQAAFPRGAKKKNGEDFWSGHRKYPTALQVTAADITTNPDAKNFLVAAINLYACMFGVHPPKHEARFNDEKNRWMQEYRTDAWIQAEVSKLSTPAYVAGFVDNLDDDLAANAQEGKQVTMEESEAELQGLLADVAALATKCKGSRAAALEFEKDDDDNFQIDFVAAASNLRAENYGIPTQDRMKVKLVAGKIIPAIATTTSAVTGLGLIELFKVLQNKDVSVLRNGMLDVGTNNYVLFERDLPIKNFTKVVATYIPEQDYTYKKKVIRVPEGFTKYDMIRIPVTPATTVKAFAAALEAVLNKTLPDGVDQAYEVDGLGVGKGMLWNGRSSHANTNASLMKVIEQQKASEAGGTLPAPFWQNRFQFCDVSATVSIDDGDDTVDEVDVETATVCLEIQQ
# ASSAY_SUMMARY: Leishmania donovani Ubiquitin Activating Enzyme (LdE1)
# Type: functional
# Set-up: scale not given: direction of the effect not stated beside the values
# STUDY_CONDITIONS: 30 µM
Results with a measured potency or affinity are listed apart.
REPORTED_METRIC: Percent Effect (%)

COMPOUND | MEASURED_VALUE
COc1ccccc1S(=O)(=O)Nc1ccc2c(C(=O)O)c[nH]c2c1 | -10.4
CC(NC(=O)NCCOc1ccc(F)c(F)c1)c1nncn1C (stereo unspecified) | 5.2
O=C(c1ccnnc1)N1C[C@@H](OCC2CCCC2)[C@H]2OCCC[C@H]21 | 8.11
c1cnn(CC2CN(c3ncnc4sccc34)CCO2)c1 (stereo unspecified) | 2.7
Cc1cnc(N2CCCC3(CCN(Cc4csc(C)n4)C3=O)C2)nc1 (stereo unspecified) | 10.7
Cc1nc(C)n(CC2CCCN(CC(=O)Nc3c(C)n[nH]c3C)C2)n1 (stereo unspecified) | 13.2
COc1ccccc1CC(=O)NCc1c(C)nc2cc(=O)[nH]n2c1C | 0
Cc1nc(N2CCN(C)CC2)ncc1C(=O)N1CC(C)(C)C(C)(O)C1 (stereo unspecified) | 2.7
Cc1nc(N2CCCC2)nc2c1CN(C(C)C)CC2 | 21.3
COc1ccc(CCN2CCN(C(=O)c3scnc3C)CC2)cc1 | 10.5
N#Cc1cccnc1NCCNC(=O)N1CCCSCC1 | 2.7

====

# ASSAYED_TARGET: Chromo domain-containing protein 1 (Saccharomyces cerevisiae (strain ATCC 204508 / S288c) (Baker's yeast))
# ASSAY_SUMMARY: ScCHD-1 Enzyme Inhibition Assay; note: in the data most compounds retested in dose-response had high values
# Type: functional
# Parameters: scale not given: direction of the effect not stated beside the values
# STUDY_CONDITIONS: 30 µM
REPORTED_METRIC: Percent Effect (%)

COMPOUND | REPORTED_METRIC | MEASURED_VALUE
CC(C)Nc1ncc(CN2C[C@@H](CN3CCC(O)CC3)[C@@H](CO)C2)cn1 | Percent Effect | -8.5
CN(CCCc1ccccc1)Cc1nc2c(cnn2C)c(=O)[nH]1 | Percent Effect | -1.12
COCC1CN(C(=O)c2ccnnc2)Cc2c1cnn2C (stereo not given) | Percent Effect | -4.09
Cc1ccsc1CNc1cc(N2CCCC2CO)ncn1 (stereo not given) | Percent Effect | -31
COc1cccc(C(=O)Nc2cc(CC(C)C)nn2C)c1 | Percent Effect | -5.36
Cc1ccc(CNC(C)c2ccc3[nH]c(=O)[nH]c3c2)s1 (stereo not given) | Percent Effect | -6.23
CCn1nc(CNC(=O)C2CC(=O)N(C3CCCC3)C2)c2ccccc21 (stereo not given) | Percent Effect | -3.19
COc1c(CNC(c2nccn2C)C(C)C)c(C)nn1C (stereo not given) | Percent Effect | 4.67
COc1ccccc1CC(=O)N1CCCC(n2nc(C)cc2C)C1 (stereo not given) | Percent Effect | -0.887
CCn1cnnc1C1CCN(C(=O)c2cccc3c2ccn3C)CC1 | Percent Effect | -13.2
CCc1nnc2n1CCN(C(=O)c1ccc(C(F)(F)F)nc1C)C2 | Percent Effect | -8.19
O=S(=O)(N1CCCCC1)N1CCc2nc(C3CCNCC3)ncc2C1 | Percent Effect | -20.6
CCNS(=O)(=O)c1ccc(C)c(C(=O)N(C)Cc2ccco2)c1 | Percent Effect | 2.86
O=C(c1ccc[nH]1)N1C[C@H]2CC[C@@H]1CN(C1Cc3ccccc3C1)C2 | Percent Effect | -2.58
Cc1nc(C2CCCN2Cc2nnc(C3CC3)o2)no1 (stereo not given) | Percent Effect | -3.91

====

# ASSAYED_TARGET: Protein translocase subunit SecA (Escherichia coli (strain K12))
# ASSAY_SUMMARY: Assay to Identify E. coli SecA ATPase Inhibitors
# Format: functional
# Set-up: scale not given: direction of the effect not stated beside the values
# STUDY_CONDITIONS: 30 µM
Entries with a potency or affinity are not part of this list.
Items are presented alongside their recorded Percent Effect.

MOLECULE | RESULT_UNITS | Percent Effect
Cc1ccc([C@]2(O)CC[C@H]3CN(Cc4cc(C)c(O)c(C)c4)C[C@H]32)nc1 | % | -2.94
Cc1nc2cc(O)nn2c(C)c1CCC(=O)N(C)Cc1cscn1 | % | -7.5
COCC1CC2(CCN(C(=O)c3cc(C)oc3C)CC2)CN1C(C)C (stereo unspecified) | % | -2.57
CC(=O)N(C)c1nc(CN2CCOC(Cn3cccn3)C2)cs1 (stereo unspecified) | % | 1.46
Cc1nc(C)n(CC2CN(c3nnc(C)c(C)c3C#N)CCO2)n1 (stereo unspecified) | % | -5.18
C[S+]([O-])c1nncn1CC(=O)c1cccc(Cl)c1 (stereo unspecified) | % | -7.89
CC(C)Cc1noc(CN2CCN(CCOc3ccc(Cl)cc3)CC2)n1 | % | -5.56
O=C(c1cccc(Cn2ccnc2)c1)N1CCCC(n2ccnc2)C1 (stereo unspecified) | % | -0.331
CCC(O)CNC(=O)c1coc(COc2ccc3sc(C)nc3c2)n1 (stereo unspecified) | % | -6.39
CC(NCc1ccc(F)cc1)c1ccc(OCC(=O)NC2CC2)cc1 (stereo unspecified) | % | -1.43
CCN1C[C@H]2CCN(C(=O)NC3CCCC3)CC[C@H]2S1(=O)=O | % | 2.4

====

# Organism: Homo sapiens
# ASSAY_SUMMARY: To identify inhibition of the IFN signalling (Jak-Stat) pathway via expression of an eGFP reporter gene under the control of an IFN-stimulated response element (ISRE) containing MxA promoter.
# Assay type: functional
# Set-up: scale not given: direction of the effect not stated beside the values
# STUDY_CONDITIONS: 30 µM
Checkbox rule: Percent Effect lower than 10% = 1; Percent Effect not lower than 10% = -1.

COMPOUND | CAT
COCc1ccccc1CNCc1c(C)nn(C)c1N(C)C | 1
O=C(O)c1nnn(-c2ccc(F)c(F)c2)c1-c1ccncc1 | 1
O=C(CCc1ccc(Cl)s1)N1CCCC(n2cncn2)C1 (stereo not given) | 1
COc1cccc(CCNC(=O)CN2CCCC2c2noc(C)n2)c1 (stereo not given) | -1
Cc1nc2cc(O)nn2c(C)c1CCC(=O)N(C)Cc1cscn1 | -1
CC(C)N(C)Cc1cn2c(n1)CN(C(=O)Cc1ccsc1)CC2 | 1
CSCc1cccc(C(=O)N2CCN(CC(C)O)CC2)c1 (stereo not given) | -1
Cc1ccccc1-c1cc(C(=O)N2CCn3c(C)nnc3C2)[nH]n1 | 1
Cn1ccc(CN2CCC(COC3CCCC3)CC2)cc1=O | -1
CCOC1CCCN(C(=O)c2cnc3c(cnn3C3CCCC3)c2)C1 (stereo not given) | -1
CN(C)S(=O)(=O)N1CCC(Oc2cnccn2)CC1 | 1
COc1cc2cc(C(=O)O)n(C)c2c(OC)c1OC | 1
Cc1cc(CN2CCN(C(=O)CCc3cccc(F)c3F)CC2)on1 | 1
Cc1ccc(O)c(CNC2CCc3nc(C(C)C)nn3C2)n1 (stereo not given) | 1
OC(CN1CCCCCCC1)c1ccc(F)cc1 (stereo not given) | -1
Cc1cc(F)ccc1OC1(C(=O)O)CCN(Cc2cccnc2N)CC1 | 1
Cn1ccnc1CN1CC[C@@H](NS(C)(=O)=O)[C@@H]1Cc1cccnc1 | -1
COCCCNC(=O)CN1CCCC1c1c(C)nn(C)c1Cl (stereo not given) | 1
COc1cccn(CC(=O)N(C)Cc2ccoc2)c1=O | 1
CSCC(C)(O)CNC(=O)c1ccc(Br)cc1C (stereo not given) | 1
Cc1c(C(=O)NCC(C)C)nnn1-c1cccc2c1CCN(C)C2 | -1
CCN(CC1CN(Cc2ncc(C)o2)CCO1)c1cccnn1 (stereo not given) | -1
CCc1nc(CN2CCN(c3ncnc4cc(F)ccc34)CC2)no1 | -1

====

# ASSAYED_TARGET: AMP-activated protein kinase, AMPK (Homo sapiens) (UniProt P54646+O43741+P54619+Q9UGJ0+Q9Y478+Q13131+Q9UGI9)
# ASSAY_SUMMARY: AMP-dependent Kinase enzyme assay. An in vitro enzyme assay that detects ADP turnover that is directly proportional to AMPK activity. This uses naive AMPK that is activated during the assay with MK-8722
# Type: functional
# Parameters: scale not given: direction of the effect not stated beside the values
# STUDY_CONDITIONS: 30 µM
// reported Percent Effect for each item listed
REPORTED_METRIC: Percent Effect (%)

MOLECULE | REPORTED_METRIC | MEASURED_VALUE
CSc1ccc(S(=O)(=O)N2CCCCC2CCNC(C)=O)cc1 (stereo unspecified) | Percent Effect | -3.42
COCCNC(=O)C(C)n1cc(Br)cn1 (stereo unspecified) | Percent Effect | 1.52
CC(=O)N(Cc1noc(C)n1)C1CCN(Cc2cc(C)on2)C1 (stereo unspecified) | Percent Effect | 1.37
Cc1nc2cc(O)nn2c(C)c1CCC(=O)N(C)Cc1cscn1 | Percent Effect | -470
Cc1noc(CCCC(=O)NC(C)c2cccnc2)n1 (stereo unspecified) | Percent Effect | 0.237
Cc1ccc(NC(=O)Cn2cc(I)cn2)cc1 | Percent Effect | -12.3
